- measuredTarget: Factor Xa from bovine plasma (Bos taurus)
- Construct: Factor Xa from bovine plasma; purchased Chromogenix; host or cells: bovine plasma
- protocolDetails: Enzyme amidolytic assay, factor Xa inhibition (chromogenic substrate S-2222)
- Assay type: biochemical
- conditionContext: S-2222 substrate, 25 °C, Cheng and Prusoff; read-out: Ki Factor Xa
Square brackets hold non-standard residues; d marks the D form. Peptide text beside a SMILES is read from it. d(hPhe) = N[C@H](CCc1ccccc1)C(=O)O; dPhLac = O=C(O)[C@H](O)Cc1ccccc1
Mark 1 (yes) only for Ki values smaller than 30 µM; exact matches and larger values are 0 (no).

molecule | answerLabel
COC(=O)C(CCCNC(=N)N)NC(=O)C1Cc2ccccc2N1C(=O)C(CCc1ccccc1)NC(=O)C(O)Cc1ccc(O)cc1 (mixture of isomers) [Compound 11e] | 0 (no)
COC(=O)[C@H](CCCNC(=N)N)NC(=O)[C@H]1Cc2ccccc2N1C(=O)[C@@H](CC(C)C)NC(=O)[C@H](O)Cc1ccccc1 (single isomer, unassigned) [Compound 29b] | 0 (no)
COC(=O)[C@@H](CCCNC(=N)N)NC(=O)[C@H]1CCCN1C(=O)[C@@H](CCc1ccccc1)NC(=O)[C@H](O)Cc1ccccc1 [Compound 21a] (H-[dPhLac][d(hPhe)][dP][dR]-OMe) | 1 (yes)
COC(=O)C(CCCNC(=N)N)NC(=O)C1CCCN1C(=O)C(CCc1ccccc1)NC(=O)C(O)Cc1ccc(O)cc1 (centres unmarked) [Compound 21b] | 1 (yes)
COC(=O)[C@H](CCCNC(=N)N)NC(=O)[C@H]1Cc2ccccc2N1C(=O)[C@@H](CCc1ccccc1)NC(=O)[C@H](O)Cc1ccccc1 (single isomer, unassigned) [Compound 11b] | 0 (no)

---

- measuredTarget: Factor Xa from bovine plasma (Bos taurus, UniProt P00743)
- Construct: Factor Xa from bovine plasma; purchased Chromogenix; host or cells: bovine plasma
- Sequence (P00743 41-180): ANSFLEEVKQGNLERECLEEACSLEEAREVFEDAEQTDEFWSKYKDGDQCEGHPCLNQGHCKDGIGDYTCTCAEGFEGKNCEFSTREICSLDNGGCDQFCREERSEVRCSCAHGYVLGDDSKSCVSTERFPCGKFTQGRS
- Sequence (P00743 234-492): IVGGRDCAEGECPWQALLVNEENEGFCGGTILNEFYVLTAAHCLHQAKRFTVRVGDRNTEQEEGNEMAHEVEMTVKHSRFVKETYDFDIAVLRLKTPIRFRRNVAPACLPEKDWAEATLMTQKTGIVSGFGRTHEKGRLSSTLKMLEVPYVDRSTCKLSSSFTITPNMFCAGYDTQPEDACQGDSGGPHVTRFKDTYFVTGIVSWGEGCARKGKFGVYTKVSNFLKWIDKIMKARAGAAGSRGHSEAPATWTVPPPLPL
- protocolDetails: Enzyme amidolytic assay, factor Xa inhibition (chromogenic substrate S-2222)
- Format: biochemical
- conditionContext: S-2222 substrate, 25 °C, Cheng and Prusoff; read-out: Ki Factor Xa
pKi: −log10 of the molar value.
metric: pKi

molecule | readoutValue
N=C(N)NCCCC(CO)NC(=O)C1Cc2ccccc2N1C(=O)C(CCc1ccccc1)NC(=O)C(O)Cc1ccc(O)cc1 (stereo not drawn) [Compound 11f] | 4.12
N=C(N)NCCC[C@@H](CO)NC(=O)[C@@H]1Cc2ccccc2N1C(=O)[C@@H](CCc1ccccc1)NC(=O)[C@@H](O)Cc1ccc(O)cc1 (mixture of isomers) [Compound 11l] | 4.21
N=C(N)NCCC[C@@H](CO)NC(=O)[C@@H]1Cc2ccccc2N1C(=O)[C@@H](Cc1ccccc1)NC(=O)[C@H](O)Cc1ccccc1 (single isomer, unassigned) [Compound 11i] | 4.29

---

pKi: −log10 of the molar value.
Here's a batch of molecules along with measured pKi for Trypsin from bovine pancreas (Bos taurus, UniProt P00760).
metric: pKi

molecule | readoutValue
N=C(N)NCCC[C@H](NC(=O)[C@H]1Cc2ccccc2N1C(=O)[C@@H](Cc1ccccc1)NC(=O)[C@H](O)Cc1ccccc1)C(=O)O (single isomer, unassigned) [Compound 12g] | 6.55
N=C(N)NCCC[C@@H](CO)NC(=O)[C@@H]1Cc2ccccc2N1C(=O)[C@@H](Cc1ccccc1)NC(=O)[C@H](O)Cc1ccccc1 (single isomer, unassigned) [Compound 11i] | 4.30
COC(=O)C(CCCNC(=N)N)NC(=O)C1Cc2ccccc2N1C(=O)C(CCc1ccccc1)NC(=O)C(O)Cc1ccc(O)cc1 (mixture of isomers) [Compound 11e] | 5.41
COC(=O)C(CCCNC(=N)N)NC(=O)C1CCCN1C(=O)C(CCc1ccccc1)NC(=O)C(O)Cc1ccc(O)cc1 (centres unmarked) [Compound 21b] | 6.04
COC(=O)[C@H](CCCNC(=N)N)NC(=O)[C@@H]1Cc2ccccc2N1C(=O)[C@@H](Cc1ccccc1)NC(=O)[C@H](O)Cc1ccccc1 (single isomer, unassigned) [Compound 11g] | 3.90
